- testSummary: Isoelectric focusing electrophoresis (pI observed)
- Type: physicochemical
- assaySetup: pH 3 to 10 gel
Exercise: state measured pI observed for each of the molecules provided.

**Query** State the recorded pI observed for this entry: TM2 K33TK37AR104E: TM2 mutant, lysine 33 to threonine, lysine 37 to alanine, arginine 104 to glutamic acid; SEQ ID NO: 14 (protein, Synthetic TM2 K33TK37AR104E) MSDVQSSLTGTWYNELNSKMELTANKDGTLTGTYLSAVGDVYVPYPLSGRYNLQPPAGQGVALGWAVSWENSKIHSATTWSGQFFSESSPVILTQWLLSSSTAEGDVWESTLVGNDSFTKTAPTEQQIAHAQLHCRAPRLK
**Result** 5.9 to 6.0

**Query** State the recorded pI observed for this entry: TM2: wild type tamavidin 2, biotin-binding protein from Pleurotus cornucopiae, amino acid sequence SEQ ID NO: 2 (protein, listed as Pleurotus cornucopiae) MSDVQSSLTGTWYNELNSKMELTANKDGTLTGKYLSKVGDVYVPYPLSGRYNLQPPAGQGVALGWAVSWENSKIHSATTWSGQFFSESSPVILTQWLLSSSTARGDVWESTLVGNDSFTKTAPTEQQIAHAQLHCRAPRLK
**Result** 8.5 to 8.8
